The following compounds are shown together with reported melting point values.
Please respond with the number in °C and leave the unit unwritten.

Known results for compounds:
{"columns": ["compound", "recordedValue"],
 "data": [
  ["O=C(O)/C=C(/Br)C(=O)O", 163],
  ["O=C(O)c1ccc(C(=O)c2ccccc2)cc1", 199],
  ["CC(=O)CCCCC(C)=O", 44],
  ["CC(C)CCCCCCCCCCCO", 10.5],
  ["O=C1C(Cl)C(CCl)CN1c1cccc(C(F)(F)F)c1 (configuration not stated)", 67.7]
]}

So what does the record say about melting point for `COc1ccc2c(c1)CCCN2` ?
42.5

So what does the record say about melting point for O=CC12CC=CCC1C1CC=CCC1O2 (configuration not stated) ?
-80

So what does the record say about melting point for `C[C@H](NC(=O)COC(=O)c1ccccc1)C(N)=O` ?
202
